FYI, the data here is from PubChem BioAssay (Tox21).

experiment.description: qHTS assay to identify small molecule agonists of the NFkB signaling pathway (AID 1159509); further: on the % scale 0 is the no-effect control and ±100 the full control effect
details: NFkB-bla ME-180 cells, beta-lactamase FRET ratio, 5 h; series mostly up to 61 µM
Inconclusive results are not listed. Active and inactive are the calls of the source. The call rests on the fitted dose curve; in most records, active means well fitted curve in the direction sought with a large enough effect in the signal ratio in the repeat runs (not every such curve was filed as active); inconclusive means weak or mixed curves, or a change in a side signal; inactive means no such curve, though single readings can be large or run the other way; the % refers to the signal ratio.
quantity.kind: activation

Example results:
Q: Identify measured activation associated with O=C(O)c1ccc(CO)o1
Result: inactive

Q: Fill in activation for record C/C(=N/NC(=O)c1ccncc1)C(=O)O
Result: inactive

Q: Please give the documented activation of [O]=[Bi]
Result: -0.308% [at 6.95 µM] (inactive)

Q: Give me measured activation, please, for this compound: CCC(=O)Oc1ccc(/C(CC)=C(\CC)c2ccc(OC(=O)CC)cc2)cc1
Result: inactive

Q: Respond only with activation recorded for CC1CC(=O)NN=C1c1ccc(NCC(C)(C)NCC(O)COc2cc(Cl)ccc2C#N)cc1 (stereo unspecified)
Result: inactive

---
Q: Kindly indicate its recorded activation. Item: CC(=O)[C@H]1CC[C@H]2[C@@H]3C=CC4=CC(=O)CC[C@@]4(C)[C@@H]3CC[C@]12C
Result: inactive

====

experiment.description: qHTS assay to identify small molecule antagonists of the thyroid receptor (TR) signaling pathway - cell viability counter screen (AID 743064); further: nearly all actives have a fitted effect of over 50% in size
details: GH3.TRE-Luc viability, CellTiter-Fluor, 24 h; series mostly up to 70.3 µM
Inconclusive results are not listed. The source made the active and inactive calls. The call rests on the fitted dose curve; in most records, active means well fitted cell-killing curve with a large enough effect in the repeat runs; inconclusive means weak or mixed curves, or effect the other way; inactive means no such curve, though single readings can be large or run the other way.
Valid outcomes are listed here; reply with one: active, inactive

Q: Write down the call the test reported for this compound. Item: CCCCCCCCCCCCCCCCBr
Result: inactive

Q: I'd appreciate the recorded outcome for CCn1nc(C)c2c1C(=O)NCC(c1ccc(O)cc1)=N2 from this test.
Result: inactive

Q: Assay outcome for COc1ccccc1N=Nc1c(S(=O)(=O)O)cc2cc(S(=O)(=O)O)cc(NC(C)=O)c2c1O : what was it?
Result: active

Q: // outcome(item) with item = Cc1cc(O)c(C(C)C)cc1Cl
Result: inactive

Q: Test call, this compound: O=C(O)Cc1ccc(-c2ccccc2)cc1
Result: inactive

More entries:
Q: Call for entry CO[C@H]1O[C@H](CO)[C@@H](O)[C@H](O)[C@H]1O :
Result: inactive

Q: Please let me know the test result on file for ON(Cc1ccccc1)Cc1ccccc1 .
Result: inactive

Q: Outcome? Cc1cc(O)c2c(O)c3c(O)cccc3cc2c1
Result: inactive

Q: Per the assay record, what outcome was assigned to CO[C@H]1C=CO[C@@]2(C)Oc3c(C)c(O)c4c(O)c(c5c(c4c3C2=O)=NC2(CCN(CC(C)C)CC2)N=5)NC(=O)/C(C)=C\C=C/[C@H](C)[C@H](O)[C@@H](C)[C@@H](O)[C@@H](C)[C@H](OC(C)=O)[C@@H]1C ?
Result: active

====

experiment.description: qHTS assay to identify small molecule antagonists of the estrogen related receptor signaling pathway with the pleiotropic PPARgamma coactivator (PGC) from Tox21 10K library (AID 1224841); further: actives are mostly falling curves and most rising ones were filed inactive; nearly all actives have a fitted effect of over 50% in size; further: potency means the concentration at half of the fitted maximal effect
details: PGC/ERR reporter cell line, ONE-Glo luciferase, 18 h; series mostly up to 92.4 µM
Results filed as inconclusive are left out. Calls of active or inactive are those of the source. How the calls were made is not given here.
quantity.kind: Potency

# count of solved cases: 10
Q: Give the value of Potency reported for the following: OC(CCCN1CCCCC1)(c1ccccc1)c1ccccc1
Result: inactive

Q: Name the recorded Potency of the compound listed here: C[C@]12CCC(=O)C=C1C=C[C@@H]1[C@@H]2CC[C@@]2(C)[C@H]1CC[C@@]21CCC(=O)O1
Result: inactive

Q: Report Potency for CC(C)(C)CC(C)(C)c1ccc(OCCO)cc1
Result: 19.2 µM (active)

Q: State its Potency: CC(C)OCC1CO1 (configuration not stated)
Result: inactive

Q: For the compound Cc1ccc(/C=N/n2c(-c3ccccc3)csc2=S)cc1 , give its measured Potency value.
Result: inactive

Q: Retrieve Potency measured for NCC1CCCC(CN)C1 (configuration not stated) and print it.
Result: inactive

Q: Tell me Potency reported for CC(C)(C)C(=O)O
Result: inactive

Q: In one line, give reported Potency of the entry Oc1ccc(Nc2ccccc2)cc1 .
Result: inactive

Q: Please supply the value of reported Potency for the item CC(=O)Oc1ccc2c(c1)CC[C@@H]1[C@@H]2CC[C@]2(C)[C@@H](O)CC[C@@H]12
Result: inactive

Q: Read the entry COC(=O)c1cc(S(N)(=O)=O)ccc1OC and write its reported Potency.
Result: inactive

# batch: return Potency for each of the 4 compounds below
1. CCOC(=O)c1ccccc1OC
2. COC(=O)Nc1nc2ccc(C(=O)c3cccs3)cc2[nH]1
3. C=CC(C)(O)CCCC(C)CCCC(C)CCCC(C)C (configuration not stated)
4. CNCCCC1c2ccccc2C=Cc2ccccc21

Result:
1. inactive
2. inactive
3. inactive
4. inactive

For every item in the list below, what is its measured Potency?
1. [O]=[Bi]
2. CO[C@H]1O[C@H](CO)[C@@H](O)[C@H](O)[C@H]1O

Result:
2.11 µM (active)
inactive

# batch size: 4; output Potency per entry
1. NC(=O)Cn1c(=O)cc(CCN2CCN(c3nccc4sccc34)CC2)c2ccc(F)cc21
2. CCN(Cc1cccc(S(=O)(=O)O)c1)c1ccc(C(=C2C=CC(=[N+](CC)Cc3cccc(S(=O)(=O)[O-])c3)C=C2)c2ccccc2)cc1
3. O=C(NCCCN1CCOCC1)c1ccc(Cl)cc1
4. Cc1cc2nc3ccc(=[N+](C)C)cc-3sc2cc1N

Result:
1: 61.1 µM (active); 2: inactive; 3: inactive; 4: 2.66 µM (active)

Return reported Potency values for all items listed beneath this line.
1. C[Si]1(C)O[Si](C)(C)O[Si](C)(C)O1
2. CN1C(=O)CC(C)(c2ccccc2)C1=O (configuration not stated)
3. N#C[C@@H]1C[C@@H]2C[C@@H]2N1C(=O)[C@@H](N)C12CC3CC(CC(O)(C3)C1)C2

Result:
["inactive", "inactive", "inactive"]

====

experiment.description: qHTS assay to identify small molecule agonists of the AP-1 signaling pathway (AID 1159526); further: on the % scale 0 is the no-effect control and ±100 the full control effect
details: ME-180 (cervical carcinoma) AP-1-bla reporter, beta-lactamase FRET ratio, 5 h; series mostly up to 76.8 µM
Records with an inconclusive call do not appear. Calls of active or inactive are those of the source. Calls come from the whole dose curve.
quantity.kind: activation

Q: Give activation for CC(=O)Oc1ccc(C(=C2CCCCC2)c2ccc(OC(C)=O)cc2)cc1
Result: inactive

Q: Hello, please tell me recorded activation for this one: CC(CCc1ccc2c(c1)OCO2)NN (stereo unspecified)
Result: inactive

Q: Tell me measured activation for Cc1ccc(Nc2nccc(N(C)c3ccc4c(C)n(C)nc4c3)n2)cc1S(N)(=O)=O please.
Result: inactive

Q: Dear colleague, please send me the reported activation for c1cnc2c(n1)CCCC2 when you can.
Result: inactive

Q: Answer with the recorded activation of C/C(=N/NC(=O)c1ccncc1)C(=O)O only.
Result: inactive

For each of the items listed, what is its activation?
1. CCCCCCCCCCCCCCC[C@H](O)[C@@H](N)CO
2. COc1ccc(CCC(=O)c2c(O)cc(O[C@@H]3O[C@H](CO)[C@@H](O)[C@H](O)[C@H]3O[C@@H]3O[C@@H](C)[C@H](O)[C@@H](O)[C@H]3O)cc2O)cc1O
3. CC(=O)OCC(=O)[C@@]12OC(C)(C)O[C@@H]1C[C@H]1[C@@H]3C[C@H](F)C4=CC(=O)C=C[C@]4(C)[C@@]3(F)[C@@H](O)C[C@@]12C
4. CCCCOC(=O)CCS
5. CCOC(=O)OCC
6. CCC(C(=O)OCCOCCN(CC)CC)c1ccccc1 (stereo unspecified)

Result:
1: inactive; 2: inactive; 3: inactive; 4: inactive; 5: inactive; 6: inactive

====

tgt: Progesterone receptor (Homo sapiens)
experiment.description: qHTS assay to identify small molecule antagonists of the progesterone receptor (PR) signaling pathway (AID 1346795)
details: PR-UAS-bla HEK293T, beta-lactamase FRET ratio, 16 h; series mostly up to 92.4 µM
From the text: National Center for Advancing Translational Sciences [NCATS] NIH Chemical Genomics Center [NCGC] U.S. Environmental Protection Agency [EPA] National Institutes of Environmental Health Sciences [NIEHS] National Toxicology Program [NTP] U.S. Food and Drug Administration [FDA] Progesterone receptor (PR), a nuclear hormone receptor, plays an important role in development, metabolic homeostasis and reproduction. […]
Inconclusive results are not listed. Activity calls are given as the source filed them. Calls follow the shape of the dose curve; as a rule, active = well fitted inhibition curve with a large enough effect in the signal ratio in the repeat runs (not every such curve was filed as active); inconclusive = weak or mixed curves; inactive = flat fitted curve, though single readings scatter; the % refers to the signal ratio.
Lab note: assign the record to one of active, inactive

Worked examples, 10 molecules total:
Q: Lab log entry: O=C(N[C@@H](c1ccccc1)[C@@H]1CCCCN1)c1cccc(C(F)(F)F)c1Cl — outcome as called in the assay?
Result: active

Q: # lookup: test call for C/C=C(\C)C(=O)OCCC(C)CCC=C(C)C (stereo unspecified)
Result: inactive

Q: Given O=C(NCCCN1CCOCC1)c1ccc(Cl)cc1 , state the outcome it received in this test.
Result: inactive

Q: Please indicate how the test categorized CCCCC(CC)COC(=O)COc1ccc(Cl)cc1C (stereo unspecified) .
Result: inactive

Q: How was O=C(O)c1ccc(CO)o1 classified in this test?
Result: inactive

Q: Just curious, what result did OC/C(Br)=C(\Br)CO get here?
Result: inactive

Q: Called result for O=C1NCCN1
Result: inactive

Q: Outcome? C[Si]1(C)O[Si](C)(C)O[Si](C)(C)O1
Result: inactive

Q: For C[N+](C)(C)CCOC(N)=O , which call appears in the assay record?
Result: inactive

Q: For this molecule, state the assay outcome: CC(C)C(OC(=O)c1ccccc1)C(C)(C)COC(=O)c1ccccc1 (stereo unspecified)
Result: active

Further cases:
Q: Which outcome was assigned to Nc1ccc(S(=O)(=O)O)cc1 in this test?
Result: inactive

Q: What classification did CC(C)C(=O)O end up with in this test?
Result: inactive

Q: Look up the recorded call for CCCC1C(CC)=CC(CC)=CN1c1ccccc1 (stereo unspecified) in this test.
Result: active

Q: Test call for this molecule, please: Oc1ccc(Nc2ccccc2)cc1
Result: active

Q: Look up the recorded call for Cc1ccccc1N1C(=O)c2cc(S(N)(=O)=O)c(Cl)cc2NC1C (stereo unspecified) in this test.
Result: inactive

Q: What was the test verdict on CCCCCCCCCCCC[N+](C)(C)CC(=O)[O-] ?
Result: inactive

Q: Status in this test for CNC(=O)N(c1ccccc1)c1ccccc1 ?
Result: inactive

Q: Record lookup: outcome of this test for C[N+]1(C)CCC(=C(c2ccccc2)c2ccccc2)CC1 ?
Result: inactive

Q: Name the outcome recorded for Cc1cc(S(=O)(=O)O)ccc1N=Nc1c(O)ccc2ccccc12 in the assay.
Result: inactive

Q: In this assay, the call recorded for CN1Cc2cc(C(=O)N3CCC(C4CCNCC4)CC3)ccc2N[C@@H](CC(=O)O)C1=O was what?
Result: inactive

Q: Can you look up the reported call for COc1ccc(CCC(=O)c2c(O)cc(O[C@@H]3O[C@H](CO)[C@@H](O)[C@H](O)[C@H]3O[C@@H]3O[C@@H](C)[C@H](O)[C@@H](O)[C@H]3O)cc2O)cc1O for me?
Result: inactive

Q: What call does the record list for CCCCCC=CCC=CCCCCCCCC(=O)OCC ?
Result: inactive

Q: Short answer needed: outcome of this test for CC1CC(O)CC(C)(C)C1 (stereo unspecified) ?
Result: inactive

Q: Returns: the outcome recorded for O=Cc1c(Cl)cccc1Cl in this assay.
Result: inactive

Q: Outcome? CCOCCn1c(C2CCN(CCc3ccc(C(C)(C)C(=O)O)cc3)CC2)nc2ccccc21
Result: inactive

Q: How was Cc1cc(O)c(C(C)C)cc1Cl classified in this test?
Result: inactive
